Please go through the items and note down their IC50.
tested on: SYO-1 complex spheroid growth, percent test/control; test: Anticancer human tumor SYO-1 cell line growth inhibition [Asc]; settings: curve of first compound; second compound 0.949 µM;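 note: compound exposure lasted 7 days after spheroids grew 3 days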

Using the record for COc1c(OCCCN2CCOCC2)ccc2c3n(c(=NC(=O)c4cnc(N)nc4)nc12)CCN3 + CCN1C(C(=O)NC23CCC(C(=O)O)(CC2)CC3)C(c2cccc(Cl)c2F)C2(C(=O)Nc3cc(Cl)ccc32)C12CCCCC2 , state its measured IC50.
< 3.16 nM

Using the record for CCN1CCN(Cc2ccc(Nc3ncc(F)c(-c4cc(F)c5nc(C)n(C(C)C)c5c4)n3)nc2)CC1 + CCN1C(C(=O)NC23CCC(C(=O)O)(CC2)CC3)C(c2cccc(Cl)c2F)C2(C(=O)Nc3cc(Cl)ccc32)C12CCCCC2 , state its measured IC50.
< 3.16 nM

Using the record for O=C(c1cc(Cc2n[nH]c(=O)c3ccccc23)ccc1F)N1CCN(C(=O)C2CC2)CC1 + CCN1C(C(=O)NC23CCC(C(=O)O)(CC2)CC3)C(c2cccc(Cl)c2F)C2(C(=O)Nc3cc(Cl)ccc32)C12CCCCC2 , state its measured IC50.
< 31.6 nM

Using the record for NC(=O)C(=Cn1cnc(-c2cc(C(F)(F)F)cc(C(F)(F)F)c2)n1)c1cncnc1 + CCN1C(C(=O)NC23CCC(C(=O)O)(CC2)CC3)C(c2cccc(Cl)c2F)C2(C(=O)Nc3cc(Cl)ccc32)C12CCCCC2 , state its measured IC50.
< 0.949 nM

Using the record for C#Cc1c(F)ccc2cc(O)cc(-c3ncc4c(N5CC6CCC(C5)N6)nc(OCC56CCCN5CC(F)C6)nc4c3F)c12 (centres undefined) + CCN1C(C(=O)NC23CCC(C(=O)O)(CC2)CC3)C(c2cccc(Cl)c2F)C2(C(=O)Nc3cc(Cl)ccc32)C12CCCCC2 , state its measured IC50.
< 31.6 nM

Using the record for Cn1ncnc1[C@H]1c2n[nH]c(=O)c3cc(F)cc(c23)N[C@@H]1c1ccc(F)cc1 + CCN1C(C(=O)NC23CCC(C(=O)O)(CC2)CC3)C(c2cccc(Cl)c2F)C2(C(=O)Nc3cc(Cl)ccc32)C12CCCCC2 , state its measured IC50.
< 0.316 nM

Using the record for C=C(F)C(=O)N1CCN(c2nc(OCC3CCCN3C)nc3c2CCN(c2cccc4cccc(Cl)c24)C3)CC1CC#N (centres undefined) + CCN1C(C(=O)NC23CCC(C(=O)O)(CC2)CC3)C(c2cccc(Cl)c2F)C2(C(=O)Nc3cc(Cl)ccc32)C12CCCCC2 , state its measured IC50.
< 31.6 nM

Using the record for O=C(c1ccc(F)c(F)c1Nc1ccc(I)cc1F)N1CC(O)([C@@H]2CCCCN2)C1 + CCN1C(C(=O)NC23CCC(C(=O)O)(CC2)CC3)C(c2cccc(Cl)c2F)C2(C(=O)Nc3cc(Cl)ccc32)C12CCCCC2 , state its measured IC50.
< 3.16 nM

Using the record for Cc1nc(N2CCC3(CC2)COC(C)C3N)c(CO)nc1Sc1ccnc(N)c1Cl (centres undefined) + CCN1C(C(=O)NC23CCC(C(=O)O)(CC2)CC3)C(c2cccc(Cl)c2F)C2(C(=O)Nc3cc(Cl)ccc32)C12CCCCC2 , state its measured IC50.
< 9.49 nM

----------
Please go through the items and note down their viability, T/C.
tested on: SYO-1 complex spheroid growth, percent test/control; assay: Anticancer human tumor SYO-1 cell line growth inhibition [Asc]; details: second compound 0.0316 µM; first compound 1 µM; stronger effect = lower value;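 note: compound exposure lasted 7 days after spheroids grew 3 days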;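 for viability, T/C: 100% = DMSO vehicle control viability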
Express it in %; write the number only.

For SYO-1 complex spheroid growth, percent test/control, give the measured viability, T/C of the entry C=CC(=O)N1CCN(c2nc(=O)n(-c3c(C)ccnc3C(C)C)c3nc(-c4c(O)cccc4F)c(F)cc23)C(C)C1 (stereo not drawn) + Cc1c(S(C)(=O)=O)c(-c2cc(F)cc(N3CCN(c4ccc(NS(=O)(=O)c5ccc(NC(CCN6CCC(C(=O)OCCCP(=O)(O)O)CC6)CSc6ccccc6)c(S(=O)(=O)C(F)(F)F)c5)cc4)CC3)c2)c(-c2ccc(Cl)cc2)n1C(C)C
106

For SYO-1 complex spheroid growth, percent test/control, give the measured viability, T/C of the entry C=C(F)C(=O)N1CCN(c2nc(OCC3CCCN3C)nc3c2CCN(c2cccc4cccc(Cl)c24)C3)CC1CC#N (stereo not drawn) + Cc1c(S(C)(=O)=O)c(-c2cc(F)cc(N3CCN(c4ccc(NS(=O)(=O)c5ccc(NC(CCN6CCC(C(=O)OCCCP(=O)(O)O)CC6)CSc6ccccc6)c(S(=O)(=O)C(F)(F)F)c5)cc4)CC3)c2)c(-c2ccc(Cl)cc2)n1C(C)C
101

For SYO-1 complex spheroid growth, percent test/control, give the measured viability, T/C of the entry COc1c(OCCCN2CCOCC2)ccc2c3n(c(=NC(=O)c4cnc(N)nc4)nc12)CCN3 + CNC(C)C(=O)NC1CN(S(=O)(=O)c2cccc(S(=O)(=O)N3CCC4CCC(C(=O)NC(c5ccccc5)c5ccccc5)N4C(=O)C(NC(=O)C(C)NC)C3)c2)CCC2CCC(C(=O)NC(c3ccccc3)c3ccccc3)N2C1=O
72.9
